experiment: Mouse PK analysis (blood/plasma concentration after oral administration); format: in vivo; conditions: mouse; mice, oral, plasma
Readout Type: Tmax (h)
Response body: numeric value in h, unit text excluded.

The following molecules have reported results that may help.
[[record]]
molecule = "Cn1c(=O)n(C2CCC(=O)NC2=O)c2cccc(N3CCC(CN4CCC5(CC4)CCN(c4ccc6cc(-c7n[nH]c8c7CCC(C)(C)C8)[nH]c6c4)C5=O)CC3)c21 (stereo not drawn)"
readout_type = "Tmax"
unit_tag = "h"
measured_value = 4

[[record]]
molecule = "C[C@@H](C(=O)N(C)c1ccc2cc(-c3n[nH]c4c3C[C@@H]3C(F)(F)[C@]3(C)C4)[nH]c2c1)N1CCN(CC2CCN(c3cccc4c3n(C)c(=O)n4C3CCC(=O)NC3=O)CC2)CC1 (stereo partly drawn)"
readout_type = "Tmax"
unit_tag = "h"
measured_value = 6

[[record]]
molecule = "CC1(C)CCc2c(-c3cc4ccc(N5CCC6(CCN(CC7CCN(c8ccc(C9CCC(=O)NC9=O)cn8)CC7)CC6)C5=O)cc4[nH]3)n[nH]c2C1 (stereo not drawn)"
readout_type = "Tmax"
unit_tag = "h"
measured_value = 1

[[record]]
molecule = "CN(c1ccc2cc(-c3n[nH]c4c3C[C@@H]3C(F)(F)[C@]3(C)C4)[nH]c2c1)C(=O)[C@H]1C[C@]2(CCN(c3ccc4c(c3)C(=O)N([C@H]3CCC(=O)NC3=O)C4=O)C2)C1 (racemic) [Compound 71b]"
readout_type = "Tmax"
unit_tag = "h"
measured_value = 1.5

[[record]]
molecule = "C[C@@]12Cc3[nH]nc(C(=O)Nc4cnn(CC5CN(C[C@H]6CCN(c7ccc8c(c7)C(=O)N(C7CCC(=O)NC7=O)C8=O)C6)C5)c4)c3C[C@@H]1C2(F)F (stereo partly drawn)"
readout_type = "Tmax"
unit_tag = "h"
measured_value = 2


Quick one: Tmax of C[C@@H](C(=O)N(C)c1ccc2cc(-c3n[nH]c4c3CCC(C)(C)C4)[nH]c2c1)N1CCN(C[C@H]2CCN(c3ccc4c(c3)CN(C3CCC(=O)NC3=O)C4=O)C2)CC1 (stereo partly drawn) ?
1

Quick one: Tmax of C[C@@]12Cc3[nH]nc(C(=O)Nc4cnn(CC5CN(C(=O)C6CN(c7ccc8c(c7)C(=O)N(C7CCC(=O)NC7=O)C8=O)C6)C5)c4)c3C[C@@H]1C2(F)F (stereo partly drawn) ?
6

Quick one: Tmax of C[C@@H](C(=O)N(C)c1ccc2cc(-c3n[nH]c4c3CCC(C)(C)C4)[nH]c2c1)N1CCN(C[C@@H]2CCN(c3ccc4c(c3)n(C)c(=O)n4C3CCC(=O)NC3=O)C2)CC1 (stereo partly drawn) ?
2

====

Items are presented alongside their recorded concentration at 6 h.
assay: Mouse PK analysis (blood/plasma concentration after oral administration); assay type: in vivo; conditions: mouse, plasma, oral, 90 mg/kg; mice, 6 h; read-out: Cal. Conc. Total (μM) 6 h
Remember to quote the unit after the number.

The following molecules have reported results that may help.
[[record]]
molecule = "CN(C(=O)C1CN(C2CCN(c3ccc4c(c3)C(=O)N(C3CCC(=O)NC3=O)C4=O)CC2)C1)c1ccc2cc(-c3n[nH]c4c3CCC(C)(C)C4)[nH]c2c1 (stereo not drawn)"
measured_value = "0.053 µM"

[[record]]
molecule = "CN(C(=O)CCN1CCN(c2ccc3c(c2)C(=O)N(C2CCC(=O)NC2=O)C3=O)CC1)c1ccc2cc(-c3n[nH]c4c3CCC(C)(C)C4)[nH]c2c1 (stereo not drawn)"
measured_value = "0.059 µM"

[[record]]
molecule = "C[C@@]12Cc3[nH]nc(C(=O)Nc4cnn([C@H](c5ccccc5)C5CN(C(=O)C6CCN(c7ccc(C(=O)NC8CCC(=O)NC8=O)nc7)CC6)C5)c4)c3C[C@@H]1C2(F)F (stereo partly drawn)"
measured_value = "0.009 µM"

[[record]]
molecule = "C[C@@H](C(=O)N(C)c1ccc2cc(-c3n[nH]c4c3CCC(C)(C)C4)[nH]c2c1)N1CCN(CC2CCN(c3ccc(C(=O)NC4CCC(=O)NC4=O)nc3)CC2)CC1 (stereo partly drawn)"
measured_value = "0.45 µM"

[[record]]
molecule = "CN(C(=O)CCC1CCN(c2ccc3c(c2)C(=O)N(C2CCC(=O)NC2=O)C3=O)C1)c1ccc2cc(-c3n[nH]c4c3CCC(C)(C)C4)[nH]c2c1 (stereo not drawn)"
measured_value = "0.7 µM"


Kindly review the next molecule as well.
Quick one: concentration at 6 h of C[C@@]12Cc3[nH]nc(C(=O)Nc4cnn([C@H](c5ccccc5)C5CN(C(=O)C6CCN(c7ccc8c(c7)C(=O)N(C7CCC(=O)NC7=O)C8=O)CC6)C5)c4)c3C[C@@H]1C2(F)F (stereo partly drawn) ?
0.0024 µM
